# Tested on: BT-474 cells
# Protocol Text: BT-474 Cell Growth Inhibition Test (SRB Assay)
# Type: cell-based, human
# Test Context: Homo sapiens, BT-474, 70 h, compound 1 μM, 70 h incubation, read-out: Growth Inhibition Ratio (%)
inhibition at 1 µM: recorded values
Please answer in the form of a number followed by its unit of measurement.

Example entries and their recorded answers appear below.
{"Compound": "COCCN(C/C=C/C(=O)Nc1cc2c(Nc3ccc(OCc4ccccn4)c(Cl)c3)c(C#N)cnc2cc1O[C@H]1CCOC1)CCOC", "System": "BT-474 cells", "inhibition at 1 µM": "82%"}
{"Compound": "CN(C)C/C=C/C(=O)Nc1cc2c(Nc3ccc(OCc4ccccc4F)c(Cl)c3)c(C#N)cnc2cc1OC1CCOC1 (stereo not shown)", "System": "BT-474 cells", "inhibition at 1 µM": "79%"}
{"Compound": "C#Cc1cccc(Nc2c(C#N)cnc3cc(O[C@H]4CCOC4)c(NC(=O)/C=C/CN(C)Cc4ccccc4)cc23)c1", "System": "BT-474 cells", "inhibition at 1 µM": "79%"}
{"Compound": "N#Cc1cnc2cc(O[C@H]3CCOC3)c(NC(=O)/C=C/CN3CCCCC3)cc2c1Nc1ccc(OCc2cccc(F)c2)c(Cl)c1", "System": "BT-474 cells", "inhibition at 1 µM": "62%"}
{"Compound": "C#Cc1cccc(Nc2c(C#N)cnc3cc(O[C@H]4CCOC4)c(NC(=O)/C=C/CN(C)C)cc23)c1", "System": "BT-474 cells", "inhibition at 1 µM": "85%"}

In: For the compound `CN(C)C/C=C/C(=O)Nc1cc2c(Nc3ccc(OCc4ccccn4)c(Cl)c3)c(C#N)cnc2cc1O[C@@H]1CCOC1` , give its measured inhibition at 1 µM value.
Out: 81%

In: For the compound `Cc1ccc(COc2ccc(Nc3c(C#N)cnc4cc(O[C@H]5CCOC5)c(NC(=O)/C=C/CN(C)C)cc34)cc2Cl)cc1` , give its measured inhibition at 1 µM value.
Out: 75%

---

GI50: recorded values
# System: Sk-Br-3 cells
Answer in nM, number only, no unit symbol.

{"Molecule": "Cc1ccccc1COc1ccc(Nc2c(C#N)cnc3cc(OC4CCOC4)c(NC(=O)/C=C/CN(C)C)cc23)cc1Cl (stereo not shown) [Example 17]", "Meas Value": 7}
{"Molecule": "CN(C)C/C=C/C(=O)Nc1cc2c(Nc3ccc(OCc4ccccn4)c(Cl)c3)c(C#N)cnc2cc1OC1CCOC1 (stereo not shown) [Example 21]", "Meas Value": 4.1}
{"Molecule": "C#Cc1cccc(Nc2c(C#N)cnc3cc(O[C@H]4CCOC4)c(NC(=O)/C=C/CN(C)C)cc23)c1 [Example 140]", "Meas Value": 22}

Kindly review the next molecule as well.
In: Please respond with reported GI50 (system Sk-Br-3 cells) for CN(C)C/C=C/C(=O)Nc1cc2c(Nc3ccc(OCc4ccccn4)c(Cl)c3)c(C#N)cnc2cc1O[C@H]1CCOC1 [Example 138] .
Out: 3.8

---

# System: BT-474 cells
# Protocol Text: BT-474 Cell Growth Inhibition Test (SRB Assay)
# Assay type: cell-based, human
# Test Context: Homo sapiens, BT-474, 70 h, compound 1 μM, 70 h incubation, read-out: Growth Inhibition Ratio (%)
inhibition at 1 µM: recorded values
Please answer in the form of a number followed by its unit of measurement.

In: For the compound `C#Cc1cccc(Nc2c(C#N)cnc3cc(O[C@@H]4CCOC4)c(NC(=O)/C=C/CN(C)C)cc23)c1` , give its measured inhibition at 1 µM value.
Out: 89%

In: For the compound CN(C)C/C=C/C(=O)Nc1cc2c(Nc3ccc(OCc4ccc(Cl)cc4)c(Cl)c3)c(C#N)cnc2cc1OC1CCOC1 (stereo not drawn) , give its measured inhibition at 1 µM value.
Out: 72%

In: For the compound `C#Cc1cccc(Nc2c(C#N)cnc3cc(O[C@H]4CCOC4)c(NC(=O)/C=C/CN4CCOCC4)cc23)c1` , give its measured inhibition at 1 µM value.
Out: 75%

---

EC50: recorded values
# System: Her2 kinase (Homo sapiens, UniProt P04626)
# Sequence (P04626 676-1255 limits assumed): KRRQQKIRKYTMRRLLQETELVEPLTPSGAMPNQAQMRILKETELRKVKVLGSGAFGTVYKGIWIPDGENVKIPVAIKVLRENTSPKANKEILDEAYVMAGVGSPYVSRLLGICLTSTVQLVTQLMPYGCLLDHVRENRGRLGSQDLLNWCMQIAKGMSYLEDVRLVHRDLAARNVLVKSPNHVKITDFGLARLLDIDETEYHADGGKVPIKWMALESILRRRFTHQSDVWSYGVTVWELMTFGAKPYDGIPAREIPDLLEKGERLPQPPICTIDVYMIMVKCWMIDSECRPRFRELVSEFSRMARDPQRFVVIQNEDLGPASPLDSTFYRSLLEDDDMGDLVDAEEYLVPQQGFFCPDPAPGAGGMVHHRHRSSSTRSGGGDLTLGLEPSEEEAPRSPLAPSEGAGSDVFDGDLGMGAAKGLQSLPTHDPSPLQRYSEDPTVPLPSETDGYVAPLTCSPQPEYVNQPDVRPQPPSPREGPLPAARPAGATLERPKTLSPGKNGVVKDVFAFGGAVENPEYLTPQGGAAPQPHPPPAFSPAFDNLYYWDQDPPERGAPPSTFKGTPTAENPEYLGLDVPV
# Protocol Text: Inhibition Activity Assay on Her2 Enzyme (ELISA, PGT substrate)
# Test Context: 8 min at 4° C., read-out: Inhibition Activity (EC50) on Her-2
Answer in nM, number only, no unit symbol.

In: For the molecule `C#Cc1cccc(Nc2c(C#N)cnc3cc(O[C@H]4CCOC4)c(NC(=O)/C=C/CN(C)C)cc23)c1` , give its measured EC50 value.
Out: 110

In: For the molecule CN(C)C/C=C/C(=O)Nc1cc2c(Nc3ccc(OCc4cccc(F)c4)c(Cl)c3)c(C#N)cnc2cc1OC1CCOC1 (stereo not shown) , give its measured EC50 value.
Out: 221

In: For the molecule N#Cc1cnc2cc(OC3CCOC3)c(NC(=O)C=C3CCNCC3)cc2c1Nc1ccc(F)c(Cl)c1 (stereo not shown) , give its measured EC50 value.
Out: 291

---

inhibition at 1 µM: recorded values
# Tested on: BT-474 cells
# Protocol Text: BT-474 Cell Growth Inhibition Test (SRB Assay)
# Assay type: cell-based, human
# Test Context: Homo sapiens, BT-474, 70 h, compound 1 μM, 70 h incubation, read-out: Growth Inhibition Ratio (%)
Answer in %, number only, no unit symbol.

{"Compound": "CCN(CC)C/C=C/C(=O)Nc1cc2c(Nc3ccc(F)c(Cl)c3)c(C#N)cnc2cc1O[C@H]1CCOC1 [Example 168]", "Unit Label": "%", "inhibition at 1 µM": 86}

In: Please respond with reported inhibition at 1 µM (system BT-474 cells) for CCN(CC)C/C=C/C(=O)Nc1cc2c(Nc3ccc(OCc4ccccn4)c(Cl)c3)c(C#N)cnc2cc1O[C@H]1CCOC1 [Example 150] .
Out: 82

In: Please respond with reported inhibition at 1 µM (system BT-474 cells) for CN(C)C/C=C/C(=O)Nc1cc2c(Nc3ccc(F)c(Cl)c3)c(C#N)cnc2cc1OC1CCOC1 (mixture of isomers) [Example 176] .
Out: 89

In: Please respond with reported inhibition at 1 µM (system BT-474 cells) for CN(C)C/C=C/C(=O)Nc1cc2c(Nc3ccc(OCc4cccc(C#N)c4)c(Cl)c3)c(C#N)cnc2cc1OC1CCOC1 (stereo not shown) [Example 15] .
Out: 71

---

# Test system: NCI-H460 cells
# Protocol Text: NCI-H460 Cell Growth Inhibition Test (MTT Assay)
# Assay type: cell-based
# Test Context: Homo sapiens, 72 h incubation
IC50: recorded values
Answer in nM, number only, no unit symbol.

In: For the compound CN(C)C/C=C/C(=O)Nc1cc2c(Nc3ccc(F)c(Cl)c3)c(C#N)cnc2cc1Oc1cccnc1 [Example 174] , give its measured IC50 value.
Out: 3000

In: For the compound CN(C)C/C=C/C(=O)Nc1cc2c(Nc3ccc(OCc4ccccc4F)c(Cl)c3)c(C#N)cnc2cc1OC1CCOC1 (centres unmarked) [Example 8] , give its measured IC50 value.
Out: 1200

In: For the compound CN(C)C/C=C/C(=O)Nc1cc2c(Nc3ccc(OCc4ccccn4)c(Cl)c3)c(C#N)cnc2cc1O[C@H]1CCOC1 [Example 138] , give its measured IC50 value.
Out: 2200

In: For the compound Cc1ccc(COc2ccc(Nc3c(C#N)cnc4cc(OC5CCOC5)c(NC(=O)/C=C/CN(C)C)cc34)cc2Cl)cc1 (centres unmarked) [Example 19] , give its measured IC50 value.
Out: 1100

In: For the compound CN(C)C/C=C/C(=O)Nc1cc2c(Nc3ccc(OCc4cccc(C#N)c4)c(Cl)c3)c(C#N)cnc2cc1OC1CCOC1 (centres unmarked) [Example 15] , give its measured IC50 value.
Out: 1400

In: For the compound CN(C)C/C=C/C(=O)Nc1cc2c(Nc3ccc(OCc4ccccc4Cl)c(Cl)c3)c(C#N)cnc2cc1OC1CCOC1 (centres unmarked) [Example 10] , give its measured IC50 value.
Out: 1700

In: For the compound CN(C)C/C=C/C(=O)Nc1cc2c(Nc3ccc(OCc4ccccn4)c(Cl)c3)c(C#N)cnc2cc1OC1CCOC1 (centres unmarked) [Example 21] , give its measured IC50 value.
Out: 2700

In: For the compound C#Cc1cccc(Nc2c(C#N)cnc3cc(O[C@H]4CCOC4)c(NC(=O)/C=C/CN(C)C)cc23)c1 [Example 140] , give its measured IC50 value.
Out: 1100

In: For the compound CN(C)C/C=C/C(=O)Nc1cc2c(Nc3ccc(F)c(Cl)c3)c(C#N)cnc2cc1OC1CCOC1 (centres unmarked) [Example 4] , give its measured IC50 value.
Out: 1600

In: For the compound C#Cc1cccc(Nc2c(C#N)cnc3cc(OC4CCOC4)c(NC(=O)/C=C/CN(C)C)cc23)c1 (centres unmarked) [Example 5] , give its measured IC50 value.
Out: 1200

In: For the compound N#Cc1cnc2cc(OC3CCOC3)c(NC(=O)C=C3CCNCC3)cc2c1Nc1ccc(OCc2cccc(F)c2)c(Cl)c1 (centres unmarked) [Example 46] , give its measured IC50 value.
Out: 4000

In: For the compound CN(C)C/C=C/C(=O)Nc1cc2c(Nc3ccc(OCc4cccc(Cl)c4)c(Cl)c3)c(C#N)cnc2cc1OC1CCOC1 (centres unmarked) [Example 11] , give its measured IC50 value.
Out: 1500

In: For the compound CN(C)C/C=C/C(=O)Nc1cc2c(Nc3ccc(F)c(Cl)c3)c(C#N)cnc2cc1O[C@H]1CCOC1 [Example 142] , give its measured IC50 value.
Out: 1040

In: For the compound CN(C)C/C=C/C(=O)Nc1cc2c(Nc3ccc(OCc4ccccc4C#N)c(Cl)c3)c(C#N)cnc2cc1OC1CCOC1 (centres unmarked) [Example 13] , give its measured IC50 value.
Out: 1800
